The measured values listed here are drawn from patent US10894788B2.

Hi! I'm sharing some pIC50 results obtained with CDK12 (Homo sapiens (Human)).
pIC50: −log10 of the molar value.

Known results for molecules:
{"compoundStructureString": "C=CC(=O)Nc1ccc(C(=O)N2CCC[C@@H](Nc3nccc(-c4cnn(C)c4)n3)C2)cc1", "reportedProperty": "pIC50", "reading": "4.00 to 4.52"}
{"compoundStructureString": "C=CC(=O)Nc1ccc(C(=O)N2CC[C@@H](Nc3ccc(Cl)cn3)C2)cc1", "reportedProperty": "pIC50", "reading": "6.00 to 7.00"}
{"compoundStructureString": "CCC(=O)Nc1ccc(C(=O)N2CCC[C@@H](Nc3nccc(-c4cn[nH]c4)n3)C2)cc1", "reportedProperty": "pIC50", "reading": "4.00 to 4.52"}

Batch request: pIC50 per item, same order as input.
1. C=CC(=O)N(C)c1ccc(C(=O)N2CC[C@@H](Nc3ncc(Cl)cn3)C2)cc1
2. C=CC(=O)Nc1ccc(C(=O)N2CC[C@@H](Nc3ccc(C)cn3)C2)cc1
3. C=CC(=O)Nc1ccc(C(=O)N2CC[C@@H](Nc3ncc(Cl)c(OC)n3)C2)cc1N1CCOCC1
4. C=CC(=O)Nc1ccc(C(=O)N2CC[C@@H](Nc3cnc(C(F)(F)F)cn3)C2)cc1
5. C=CC(=O)Nc1ccc(C(=O)N2CC[C@@H](Nc3ncc(Br)cn3)C2)cc1

1. 6.00 to 7.00
2. 5.00 to 6.00
3. > 7.00
4. 6.00 to 7.00
5. > 7.00

Item: `CCC(=O)Nc1ccc(C(=O)N2CC[C@@H](Nc3nccc(-c4cn[nH]c4)n3)C2)cc1` | System: CDK12 (Homo sapiens (Human)) | pIC50: 5.00 to 6.00

###

assayedSystem: CDK12 wt/CycK (Homo sapiens (Human), UniProt Q9NYV4)
assayMethodText: Radiometric protein kinase assay (33PanQinase Activity Assay), Assay Condition A (thiol containing conditions)
Type: biochemical
reportedConditions: thiol containing conditions (1.2 mM DTT), ATP 0.3 μM; read-out: CDK12 IC50 Condition A
Please provide measured IC50 for the entries that follow.

{"compoundStructureString": "C=CC(=O)Nc1ccc(C(=O)N2CC[C@H](Nc3ncc(Cl)cn3)C2)cc1", "IC50": "10 to 30 µM"}
{"compoundStructureString": "C=CC(=O)Nc1ccc(C(=O)N2CC[C@@H](Nc3cnc(Cl)cn3)C2)cc1", "IC50": "0.1 to 1 µM"}

Looking up `O=C(c1ccc(N2C(=O)C=CC2=O)cc1)N1CC[C@@H](Nc2ncc(Cl)cn2)C1` , I see its IC50 listed as 1 to 10 µM

###

Hi! I'm sharing some IC50 results obtained with CDK12 (Homo sapiens (Human), UniProt Q9NYV4).
Sequence (Q9NYV4 whole entry): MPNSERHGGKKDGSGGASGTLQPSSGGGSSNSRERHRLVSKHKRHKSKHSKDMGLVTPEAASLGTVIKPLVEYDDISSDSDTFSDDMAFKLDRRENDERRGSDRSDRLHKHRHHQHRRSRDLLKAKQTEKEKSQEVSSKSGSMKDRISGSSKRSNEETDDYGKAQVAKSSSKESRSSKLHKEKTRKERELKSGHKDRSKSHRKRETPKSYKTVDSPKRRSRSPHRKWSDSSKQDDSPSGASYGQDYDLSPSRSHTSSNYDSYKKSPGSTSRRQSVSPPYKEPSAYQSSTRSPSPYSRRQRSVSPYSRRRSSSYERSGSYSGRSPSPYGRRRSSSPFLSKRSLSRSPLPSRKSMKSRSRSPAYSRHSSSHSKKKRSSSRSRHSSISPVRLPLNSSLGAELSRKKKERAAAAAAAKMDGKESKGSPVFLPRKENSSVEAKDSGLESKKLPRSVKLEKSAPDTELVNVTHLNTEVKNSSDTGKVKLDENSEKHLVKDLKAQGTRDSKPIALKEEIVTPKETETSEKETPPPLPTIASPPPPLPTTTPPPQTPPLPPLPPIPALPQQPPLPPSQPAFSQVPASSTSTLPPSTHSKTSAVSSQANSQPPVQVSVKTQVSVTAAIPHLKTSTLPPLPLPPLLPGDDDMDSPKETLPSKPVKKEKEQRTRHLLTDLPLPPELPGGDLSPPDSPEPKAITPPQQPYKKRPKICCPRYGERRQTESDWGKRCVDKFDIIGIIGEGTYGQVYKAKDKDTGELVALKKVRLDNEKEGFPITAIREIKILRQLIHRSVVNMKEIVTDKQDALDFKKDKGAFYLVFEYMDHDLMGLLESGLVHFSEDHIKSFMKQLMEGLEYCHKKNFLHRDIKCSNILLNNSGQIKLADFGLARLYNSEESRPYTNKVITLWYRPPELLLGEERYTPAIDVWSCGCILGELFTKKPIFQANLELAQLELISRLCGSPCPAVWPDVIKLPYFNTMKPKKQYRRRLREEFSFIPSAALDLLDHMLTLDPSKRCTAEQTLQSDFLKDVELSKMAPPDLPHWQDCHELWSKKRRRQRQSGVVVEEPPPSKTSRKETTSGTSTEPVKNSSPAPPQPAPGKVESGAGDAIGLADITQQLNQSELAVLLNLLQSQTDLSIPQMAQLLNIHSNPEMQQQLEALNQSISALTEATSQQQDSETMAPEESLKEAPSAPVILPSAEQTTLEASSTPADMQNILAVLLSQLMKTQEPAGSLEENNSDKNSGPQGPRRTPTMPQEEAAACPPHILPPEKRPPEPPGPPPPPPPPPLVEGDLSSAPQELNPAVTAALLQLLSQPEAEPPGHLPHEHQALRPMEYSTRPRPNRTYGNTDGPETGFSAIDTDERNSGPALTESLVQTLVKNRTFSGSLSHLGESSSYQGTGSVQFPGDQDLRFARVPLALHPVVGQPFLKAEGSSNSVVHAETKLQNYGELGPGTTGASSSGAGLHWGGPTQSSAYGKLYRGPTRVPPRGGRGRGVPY
Sequence (O75909 whole entry partner): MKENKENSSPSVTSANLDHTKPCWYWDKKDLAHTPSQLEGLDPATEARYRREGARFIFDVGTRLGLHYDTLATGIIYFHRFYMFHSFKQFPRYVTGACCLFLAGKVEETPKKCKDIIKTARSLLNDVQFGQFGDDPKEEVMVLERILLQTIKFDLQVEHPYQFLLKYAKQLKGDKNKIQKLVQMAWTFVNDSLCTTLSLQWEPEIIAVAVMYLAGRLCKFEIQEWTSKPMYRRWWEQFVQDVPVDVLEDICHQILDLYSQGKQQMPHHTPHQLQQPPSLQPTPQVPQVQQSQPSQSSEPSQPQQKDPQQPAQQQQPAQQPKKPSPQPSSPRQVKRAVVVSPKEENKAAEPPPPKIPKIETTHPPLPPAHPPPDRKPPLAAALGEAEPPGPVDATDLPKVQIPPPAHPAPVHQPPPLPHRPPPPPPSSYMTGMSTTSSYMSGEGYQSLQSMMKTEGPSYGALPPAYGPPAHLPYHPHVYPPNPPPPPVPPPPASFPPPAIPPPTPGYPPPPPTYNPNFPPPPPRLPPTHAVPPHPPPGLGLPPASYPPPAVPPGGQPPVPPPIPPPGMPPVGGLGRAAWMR

Known results for compounds:
{"compound": "C=CC(=O)Nc1ccc(C(=O)N2CC[C@@H](Nc3ncc(Cl)cn3)C2)cc1C [Example 29]", "reportedProperty": "IC50", "reading": "< 100 nM"}
{"compound": "C=CC(=O)N(C)c1ccc(C(=O)N2CC[C@@H](Nc3ncc(Cl)c(OC)n3)C2)cc1 [Example 25]", "reportedProperty": "IC50", "reading": "< 100 nM"}
{"compound": "C=CC(=O)Nc1ccc(C(=O)N2CC[C@@H](Nc3ncc(C(F)(F)F)cn3)C2)cc1C [Example 79]", "reportedProperty": "IC50", "reading": "< 100 nM"}
{"compound": "C=CC(=O)Nc1ccc(C(=O)N2CC[C@@H](Nc3ncc(Br)c(OC)n3)C2)cc1 [Example 20]", "reportedProperty": "IC50", "reading": "< 100 nM"}
{"compound": "C=CC(=O)Nc1ccc(C(=O)N2CC[C@@H](Nc3ncc(Cl)cn3)C2)c(C)c1 [Example 32]", "reportedProperty": "IC50", "reading": "100 to 1000 nM"}
{"compound": "CCC(=O)Nc1ccc(C(=O)N2CC[C@@H](Nc3ncc(F)c(OC4CC4)n3)C2)cc1 [Example 13]", "reportedProperty": "IC50", "reading": "1000 to 10000 nM"}

Now for another entry.
Looking up C=CC(=O)Nc1ccc(C(=O)N2CC[C@@H](Nc3ncc(Cl)c(OC4CC4)n3)C2)cc1 [Example 56] , I see its IC50 listed as < 100 nM

###

assayedSystem: CDK12 wt/CycK (Homo sapiens (Human), UniProt Q9NYV4)
assayMethodText: Radiometric protein kinase assay (33PanQinase Activity Assay), Assay Condition A (thiol containing conditions)
Format: biochemical
reportedConditions: thiol containing conditions (1.2 mM DTT), ATP 0.3 μM; read-out: CDK12 IC50 Condition A
reportedProperty: IC50

{"compoundStructureString": "C=CC(=O)Nc1ccc(C(=O)N2C[C@H](Nc3ncc(Cl)c(OC)n3)C[C@@H]2C)cc1", "IC50": "< 100 nM"}
{"compoundStructureString": "C=CC(=O)Nc1cccc(C(=O)N2CCC[C@@H](Nc3ncc(Cl)c(OC)n3)C2)c1", "IC50": "10000 to 30000 nM"}
{"compoundStructureString": "C=CC(=O)Nc1ccc(C(=O)N2CC[C@@H](Nc3ncc(C(F)(F)F)cn3)C2)cc1", "IC50": "< 100 nM"}

Batch request: IC50 per item, same order as input.
1. COc1nc(N[C@@H]2CCN(C(=O)c3ccc(NC(=O)/C=C/CN4CC[C@@H](F)C4)cn3)C2)ncc1Cl
2. COc1nc(N[C@@H]2CCN(C(=O)c3ccc(NC(=O)/C=C/CN4CC[C@@H](F)C4)nc3)C2)ncc1Cl
3. CCC(=O)Nc1ccc(C(=O)N2CC[C@@H](Nc3ncc(Br)cn3)C2)cc1
4. C=CC(=O)Nc1ccc(C(=O)N2CC[C@@H](Nc3ncc(CC(C)C)cn3)C2)cc1
5. C=CC(=O)N(C)c1ccc(C(=O)N2CC[C@@H](Nc3ncc(Br)cn3)C2)cc1
6. [2H]c1nc(N[C@@H]2CCN(C(=O)c3ccc(NC(=O)C=C)cc3)C2)nc(NC)c1Cl

["100 to 1000 nM", "100 to 1000 nM", "100 to 1000 nM", "1000 to 10000 nM", "< 100 nM", "< 100 nM"]

Batch request: IC50 per item, same order as input.
1. C#CC(=O)Nc1ccc(C(=O)N2CC[C@@H](Nc3ncc(Cl)c(OC)n3)C2)cc1
2. CN(C)C=C(C#N)C(=O)Nc1cccc(C(=O)N2CC[C@@H](Nc3ncc(Cl)cn3)C2)c1
3. C=CC(=O)Nc1nc(C(=O)N2CC[C@@H](Nc3ncc(C(F)(F)F)cn3)C2)cs1
4. CN(C)/C=C(\C#N)C(=O)Nc1ccc(C(=O)N2CC[C@@H](Nc3ncc(Cl)cn3)C2)cc1
5. C=CC(=O)Nc1ccc(C(=O)N2CC[C@@H](Nc3ncc(Br)c(OC)n3)C2)cc1
6. C=CC(=O)Nc1ccc(C(=O)N2CC[C@@H](Nc3ncc(C4CC4)c(OC)n3)C2)cc1

< 100 nM
1000 to 10000 nM
100 to 1000 nM
100 to 1000 nM
< 100 nM
100 to 1000 nM

Looking up `C=CC(=O)Nc1ccc(C(=O)N2CC[C@@H](Nc3ncc(Cl)cn3)C2)cc1C` , I see its IC50 listed as 100 to 1000 nM
